Target: Pyrroline-5-carboxylate reductase (Arabidopsis thaliana)
Sequence (P54904 whole entry): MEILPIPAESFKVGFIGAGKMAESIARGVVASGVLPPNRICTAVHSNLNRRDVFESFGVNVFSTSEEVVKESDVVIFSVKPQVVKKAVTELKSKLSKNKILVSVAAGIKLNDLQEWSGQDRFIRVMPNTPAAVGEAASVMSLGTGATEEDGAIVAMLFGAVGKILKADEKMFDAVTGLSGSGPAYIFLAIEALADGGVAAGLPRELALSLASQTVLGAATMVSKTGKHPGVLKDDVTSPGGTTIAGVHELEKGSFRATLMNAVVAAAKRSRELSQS
measured-quantity: pIC50
// scale note: pIC50 = -log10(conc_M); give the bare number

Please give the measured pIC50 for this compound: `O=P(O)(O)C(Nc1cc(Cl)cc(Cl)c1)P(=O)(O)O`
4.11
